Assay: The drug is tested on Subdoligranulum variabile strain: DSM15176 for biotransformation. The drug concentrations were measured before and after a 12-h incubation by liquid-chromatography-coupled mass spectrometry (LC–MS)
Details: 2 µM

MOLECULE	Bacterial Biotransformation
Cc1ccc(-c2nc3ccc(C)cn3c2CC(=O)N(C)C)cc1 [ZOLPIDEM]	Compound NOT metabolized
CN1[C@@H]2CC[C@H]1C[C@@H](OC(=O)c1c[nH]c3ccccc13)C2 [TROPISETRON]	Compound NOT metabolized
COc1cc2nc(N3CCN(C(=O)C4COc5ccccc5O4)CC3)nc(N)c2cc1OC.CS(=O)(=O)O (centres undefined) [DOXAZOSIN MESYLATE]	Compound NOT metabolized
